Test system: A549
Assay: NCI tumour cell line growth inhibition, 48 h
Active and inactive are the calls of the source. Cut-off read from the data, not from the text of the source: active = GI50 up to about 1.1 µM and inactive = higher.
Could you please pick one outcome from this set? YES for active, NO for inactive

Would you please look over these solved cases?
CC1(C)C(/C=N\O)=[N+]([O-])C(C)(C)N1O: NO
CCC1CCC2CCCC(C)N12 (stereo unspecified): NO
BrC(/C=N/Nc1nnc(-c2ccccc2)c(-c2ccccc2)n1)C(Br)c1ccccc1 (stereo unspecified): NO
COc1ccc2cc1Oc1ccc(cc1)C(Sc1ccccc1)CCOC(=O)CC2 (stereo unspecified): NO
C1=N\CCNCC/N=C/c2ccccc2OCc2cccc(n2)COc2ccccc2/1: NO
CCc1cccc(C)c1NC(=O)CCc1nnc(SC)o1: NO

input: Which result was noted for this compound in the test: O=C1C2C(C(=O)N1Cc1ccccc1)N(Cc1ccccc1)C(=O)N2Cc1ccccc1 (stereo unspecified)
output: NO

input: Any idea what this test logged for `CN(C)CCCNc1ccc2nnn3c4ccc(OC(=O)c5ccc([N+](=O)[O-])cc5)cc4c(=O)c1c23` ?
output: NO

* * *

Listing of recorded GI50 by entry.
System: LOX IMVI
Assay: NCI tumour cell line growth inhibition, 48 h
Active and inactive are the calls of the source. Rule as the data show it: active = GI50 up to about 1.1 µM and inactive = higher.

C=Cc1c(C)c(O)cc2c1-c1ccc(O)c(C)c1CC2: 16.1 µM (inactive)
Cc1ccc(C)c(NC(=O)CC/C(=N\NC(=O)C(=O)NN)C(C)C(=O)c2ccc(O)cc2)c1 (stereo not given): > 100 µM (inactive)
C=C1C(=O)C[C@H]2C(=C)C(=O)O[C@@H]2C2C1CC[C@@]2(C)O (stereo not given in full): 17.5 µM (inactive)
CC1=NC(=Cc2ccc(O)cc2)C(=O)N1n1c(-c2ccccc2)nc2ccccc2c1=O: > 100 µM (inactive)
Nc1nc(Cl)cc(OCC2(CO)CCCC2)n1: > 100 µM (inactive)

Next compound, GI50 to be filled in.
input: Give recorded GI50. `Cc1cc(=O)n2nc(CSc3nnc(Sc4cc(O)ccc4O)s3)sc2n1`
output: 21.7 µM (inactive)

* * *

Tested on: HCC 2998
Assay: NCI tumour cell line growth inhibition, 48 h
Active and inactive are the calls of the source. Rule as the data show it: active = GI50 up to about 1.1 µM and inactive = higher.
Endpoint label: GI50

Please review the following examples before continuing.
Clc1cc(OC2C3CC4CC(C3)CC2C4)nc(Cl)n1 (centres undefined): 1.96 µM (inactive)
NCCCN(CCCCN(CCCN)CCCc1ccccc1)CCCc1ccccc1: 1.62 µM (inactive)
COC(=O)C1C(O)C(C)C(O)C(C)C=C(C)C2=C3C(=C(C)C(=O)c4c(O)c(c(C)c(OC(C)=O)c43)NC(=O)C(C)=C/C=C\C(C)C(O)C(C)C1O)OCO2 (centres undefined): 34.3 µM (inactive)
COc1ccc(C2=NN(C(=O)c3ccc(Cl)cc3)C(O)(c3cc(F)c(Cl)cc3Cl)C2)cc1 (centres undefined): 43.5 µM (inactive)
Cc1c(/C=N/NC(=S)Nc2cccc(Cl)c2)c(=O)n(-c2ccccc2)n1C: 55.6 µM (inactive)
CCOC(=O)NC(=O)c1cn(CCCOC(=O)CCCCCCCCCCC(=O)OCCCn2cc(C(=O)NC(=O)OCC)c(=O)n(C)c2=O)c(=O)n(C)c1=O: > 100 µM (inactive)

input: Identify measured GI50 corresponding to Cc1ccc(C)c(NC(=O)CC/C(=N\NC(=O)C(=O)NN)C(C)C(=O)c2ccc(O)cc2)c1 (centres undefined)
output: > 100 µM (inactive)

input: Please indicate GI50 recorded for `O=S1(=O)N=C(NCc2c[nH]c3ccccc23)N(c2ccccc2)c2ccncc21`
output: > 100 µM (inactive)

input: Identify GI50 associated with the compound `CC(=O)OC[C@@]1(C)[C@@H]2[C@@H]3[C@@]4(CO[C@]3(C)C(=O)[C@@]3(OC(C)=O)C[C@H](C)[C@H](OC(C)=O)[C@@H]3[C@H]4OC(C)=O)[C@H](OC(=O)c3ccccc3)C[C@@H]21`
output: > 100 µM (inactive)

input: Check the records and state GI50 for `C#C[C@@]1(O)CCCC2=CC(=O)C[C@]21C`
output: > 100 µM (inactive)

input: Complete the entry with GI50 for `CC(=O)NNc1ncc(C(=O)/C=C/c2ccccc2C)s1`
output: > 100 µM (inactive)

input: For the compound `Cc1ccc(-n2cc(-c3ccc(Cl)cc3)c(C#N)c2N)cc1` , report GI50.
output: 14.9 µM (inactive)

input: Quickly give me recorded GI50 for `Cc1ccc(/N=N/c2cc(=O)[nH]c(=O)[nH]2)cc1C`
output: 5.01 µM (inactive)

input: Recall and state the measured GI50 for COC(=O)C[S+]([O-])c1ccccc1 (centres undefined) .
output: 25.3 µM (inactive)

input: Indicate the recorded GI50 value for this compound: COC(=O)C1C(=O)C(C(=O)OC)C2CCC1N2C (centres undefined)
output: > 100 µM (inactive)

input: Report GI50 for `CN(C)/N=C(/CC(O)(C(F)(F)F)C(F)(F)F)c1ccc([N+](=O)[O-])cc1`
output: > 100 µM (inactive)

input: Give me measured GI50, please, for this compound: `CC(=O)c1ccc(-c2oc(-c3ccccc3)cc2-c2ccc3c(c2)OCO3)s1`
output: > 100 µM (inactive)

input: Return GI50 (reported value) for this compound: CCCCCC(/C=C/[C@@H]1[C@H]2CC(=O)O[C@H]2C[C@H]1N1CCOCC1)OC1CCCO1 (some centres undefined)
output: > 100 µM (inactive)

input: Consider the compound `CN(C)c1ccc(/C=C2\N=C(NN)NC2=O)cc1` and give its recorded GI50.
output: 80.9 µM (inactive)
